Values were extracted from ChEMBL document CHEMBL1212901.

- experiment notes: Antiproliferative activity against human WM793 cells after 3 days by SRB assay
- Assay type: functional
- reported conditions: Homo sapiens, WM793, 72 h; read-out: ED50 (the source's name)
property name: EC50

1) C=C(C)[C@@H]1CC[C@]2(C(=O)O)CC[C@]3(C)[C@H](CC[C@@H]4[C@@]5(C)CC[C@H](OC(=O)C[n+]6ccc(N(C)C)cc6)C(C)(C)[C@@H]5CC[C@]43C)[C@@H]12.[Br-] | 5700 nM
2) C=C(C)[C@@H]1CC[C@]2(COC(=O)C(C)[n+]3ccc(N(C)C)cc3)CC[C@]3(C)[C@H](CC[C@@H]4[C@@]5(C)CC[C@H](O)C(C)(C)[C@@H]5CC[C@]43C)[C@@H]12 (some centres undefined) | 2600 nM
3) C=C(C)[C@@H]1CC[C@]2(COC(=O)C(C)[n+]3ccc(N(C)C)cc3)CC[C@]3(C)[C@H](CC[C@@H]4[C@@]5(C)CC[C@H](OC(=O)C(C)[n+]6ccc(N(C)C)cc6)C(C)(C)[C@@H]5CC[C@]43C)[C@@H]12 (some centres undefined) | 500 nM
4) C=C(C[n+]1ccc(N(C)C)cc1)[C@@H]1CC[C@]2(C(=O)O)CC[C@]3(C)[C@H](CC[C@@H]4[C@@]5(C)CC[C@H](O)C(C)(C)[C@@H]5CC[C@]43C)[C@@H]12 | > 6100 nM
